Every entry's value here was drawn from paper PMC3473092.

I'd appreciate it if you could supply Median parasite area values for the items below.
- Tested on: P. yoelii EEF
- PROCEDURE SUMMARY: P. yoelii liver-stage
- Assay type: cell-based, Plasmodium yoelii
- CONDITIONS USED: 10 μM; ±SD; DMSO control 160 to 180 μm^2; smallest size detected 9 μm^2
One number for each entry, in μm^2.

{"COMPOUND": "CO[C@@H]1C(=O)CC[C@]2(CO2)[C@@]1(O)[C@@]1(C)O[C@@H]1CC=C(C)C", "MEASUREMENT TARGET": "P. yoelii EEF", "READOUT UNIT": "μm^2", "OBSERVED": 19.1}
{"COMPOUND": "CCc1nc(N)nc(N)c1-c1ccc(Cl)cc1", "MEASUREMENT TARGET": "P. yoelii EEF", "READOUT UNIT": "μm^2", "OBSERVED": 29.6}
{"COMPOUND": "CCCCCCCCCCOc1cc2c(O)c(C(=O)OCC)cnc2cc1OCC [Decoquinate]", "MEASUREMENT TARGET": "P. yoelii EEF", "READOUT UNIT": "μm^2", "OBSERVED": 18.8}
{"COMPOUND": "O=C1C(O)=C([C@H]2CC[C@H](c3ccc(Cl)cc3)CC2)C(=O)c2ccccc21", "MEASUREMENT TARGET": "P. yoelii EEF", "READOUT UNIT": "μm^2", "OBSERVED": 18.6}

Switching to the query record.
Record request: Median parasite area value, item "COc1ccc2cc3[n+](cc2c1OC)CCc1cc2c(cc1-3)OCO2" 22.4

====

- Tested on: HepG2-A16-CD81EGFP cells
- PROCEDURE SUMMARY: HepG2-A16-CD81EGFP inhibition
- Format: cell-based
- CONDITIONS USED: Homo sapiens, HepG2, read-out: HepG2 inhibition IC50
ATTRIBUTE MEASURED: IC50 (µM)
Give bare numbers, in µM.

{"COMPOUND": "O=C1C(O)=C([C@H]2CC[C@H](c3ccc(Cl)cc3)CC2)C(=O)c2ccccc21", "IC50 (µM)": 9.5}

// moving on: another record for IC50
Looking for the measured IC50 of C[C@@H]1C[C@@H]([C@H](O)CC2CC(=O)NC(=O)C2)C(=O)[C@@H](C)C1 [Cycloheximide] , can you help? 0.22

====

- Tested on: HepG2-A16-CD81EGFP cells
- PROCEDURE SUMMARY: HepG2-A16-CD81EGFP inhibition
- Assay type: cell-based
- CONDITIONS USED: Homo sapiens, HepG2, read-out: HepG2 inhibition IC50
ATTRIBUTE MEASURED: pIC50
Give bare numbers, as −log10 of the molar value.

In the examples that follow, each entry is paired with its recorded pIC50.
{"COMPOUND": "OC(c1cc(C(F)(F)F)nc2c(C(F)(F)F)cccc12)C1CCCCN1 (centres unmarked)", "pIC50": 5.51}
{"COMPOUND": "COc1ccc2cc3[n+](cc2c1OC)CCc1cc2c(cc1-3)OCO2", "pIC50": 5.59}
{"COMPOUND": "CC[C@@H](C(=O)[C@@H](C)[C@@H](O)[C@H](C)CCc1ccc(C)c(O)c1C(=O)O)[C@H]1O[C@](CC)([C@H]2CC[C@](O)(CC)[C@H](C)O2)C[C@@H]1C", "pIC50": 5.41}

Answer for every listed entry: what is its pIC50? The entries follow.
1. COc1cc(NC(C)CCCN)c2ncccc2c1 (centres unmarked)
2. CCN(CC)CCCC(C)Nc1ccnc2cc(Cl)ccc12 (centres unmarked)
3. CCc1nc(N)nc(N)c1-c1ccc(Cl)cc1

1: 5.21; 2: 5.80; 3: 5.20
